target: N-terminal 6His-tagged ROCK2 catalytic domain 11-552 (Homo sapiens)
Sequence (O75116 11-552): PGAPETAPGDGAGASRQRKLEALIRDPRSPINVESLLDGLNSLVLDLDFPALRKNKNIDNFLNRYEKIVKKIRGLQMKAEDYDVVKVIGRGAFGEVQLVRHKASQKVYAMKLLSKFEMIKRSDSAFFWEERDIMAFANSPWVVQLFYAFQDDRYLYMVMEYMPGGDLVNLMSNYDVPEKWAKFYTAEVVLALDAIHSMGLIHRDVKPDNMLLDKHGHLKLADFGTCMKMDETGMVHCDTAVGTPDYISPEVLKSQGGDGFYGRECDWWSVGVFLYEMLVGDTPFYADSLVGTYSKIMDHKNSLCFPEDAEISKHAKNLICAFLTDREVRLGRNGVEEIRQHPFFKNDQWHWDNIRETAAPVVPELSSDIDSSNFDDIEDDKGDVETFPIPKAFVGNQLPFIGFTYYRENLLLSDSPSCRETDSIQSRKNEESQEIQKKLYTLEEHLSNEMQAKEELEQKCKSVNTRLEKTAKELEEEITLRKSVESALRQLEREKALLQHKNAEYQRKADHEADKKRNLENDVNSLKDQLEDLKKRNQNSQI
pIC50: −log10 of the molar value.

{"MOLECULE": "CC(C)NC(=O)COc1ccc(-c2nc(Nc3ccc4[nH]ncc4c3Cl)n(C)n2)cc1", "pIC50": "> 6.52"}
{"MOLECULE": "COc1cc(-c2nc(Nc3ccc4[nH]ncc4c3Cl)n(-c3ccccc3)n2)ccc1OCC(=O)NC1CCNC1 (centres unmarked)", "pIC50": "> 6.52"}
{"MOLECULE": "COc1cc(-c2nc(Nc3ccc4[nH]ncc4c3Cl)n(C)n2)ccc1OCC(=O)N[C@@H](C)C(F)(F)F", "pIC50": "> 6.52"}
{"MOLECULE": "COc1cc(OCC(=O)NC(C)C)ccc1-c1nnc(Nc2ccc3[nH]ncc3c2)[nH]1", "pIC50": "5.52 to 6.52"}
{"MOLECULE": "COc1cc(OCC(=O)NC(C)C)ccc1-c1nc(Nc2ccc3[nH]ncc3c2)n(C)n1", "pIC50": "> 6.52"}
{"MOLECULE": "CCNC(=O)c1ccc(-c2nc(Nc3ccc4[nH]ncc4c3)n(C)n2)c(C(F)(F)F)c1", "pIC50": "5.52 to 6.52"}
{"MOLECULE": "CC(=O)NCCOc1ccc(-c2nnc(Nc3ccc4[nH]ncc4c3)[nH]2)cc1", "pIC50": "5.52 to 6.52"}
{"MOLECULE": "CCn1nc(-c2ccc(C(=O)NCC(F)(F)F)c(OC)c2)nc1Nc1ccc2[nH]ncc2c1C1CC1", "pIC50": "> 6.52"}

Entry source: patent US11497751B2
